target: T1, proprotein convertase subtilisin/kexin type 9 (PCSK9) (human, UniProt Q8NBP7 31-692); assay: phage spot ELISA;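 further: phage clones bound to PCSK9 or PCSK9Δhelix by ELISA, noise being the same phage on NeutrAvidin, positive when signal above 0.4 and signal:noise above 2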
T1 construct: His-tagged full-length PCSK9 in TR-FRET and SPR, biotinylated in phage ELISA; secreted protein is autoprocessed (prodomain plus catalytic/CRD chain starting at S153); also called rec.PCSK9; His-PCSK9
T1 sequence (Q8NBP7 other isoform, or with tags, fused parts or gaps limits assumed): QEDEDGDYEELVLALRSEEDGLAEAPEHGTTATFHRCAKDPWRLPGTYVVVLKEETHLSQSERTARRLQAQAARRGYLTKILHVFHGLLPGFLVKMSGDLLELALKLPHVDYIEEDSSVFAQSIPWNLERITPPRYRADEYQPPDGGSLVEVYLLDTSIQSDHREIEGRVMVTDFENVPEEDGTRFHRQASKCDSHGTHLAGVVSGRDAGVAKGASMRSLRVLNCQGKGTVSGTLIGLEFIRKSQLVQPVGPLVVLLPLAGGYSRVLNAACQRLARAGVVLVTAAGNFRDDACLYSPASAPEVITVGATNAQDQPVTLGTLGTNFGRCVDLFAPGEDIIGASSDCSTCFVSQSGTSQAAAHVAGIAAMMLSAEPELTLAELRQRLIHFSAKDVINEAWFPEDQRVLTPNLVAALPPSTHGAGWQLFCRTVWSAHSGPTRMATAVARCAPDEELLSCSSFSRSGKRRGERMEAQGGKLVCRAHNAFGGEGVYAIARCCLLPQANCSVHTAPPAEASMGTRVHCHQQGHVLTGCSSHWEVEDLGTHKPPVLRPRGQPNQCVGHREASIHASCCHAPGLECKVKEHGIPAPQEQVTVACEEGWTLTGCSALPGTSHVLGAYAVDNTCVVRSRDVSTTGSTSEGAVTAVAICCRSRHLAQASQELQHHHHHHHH
property.name: ELISA
Numbers only.

Field: example entries. Status: answers known.
binder	property.name	obs.value
TAFTSWEEYLDWVGSGALWNMRRVESVAFR [SEQ ID NO 319]	ELISA	3.09
TAFTSWEEYLDWVGSGMPWNLARIER [SEQ ID NO 318]	ELISA	2.86
TAFTSWEEYLDWVGSGNVRCYRDVPSCS [SEQ ID NO 329]	ELISA	2.66

Please state ELISA for every binder in the list that follows.
1. TAFTSWEEYLDWVGSGACLNHFVSGNMIRC [SEQ ID NO 327]
2. TAFTSWEEYLDWVGSGKLWNLGRV [SEQ ID NO 306]
3. TAFTSWEEYLDWVGSGGEYLWNLKRLES [SEQ ID NO 320]
4. TAFTSWEEYLDWVGSGNPTYWLTRIS [SEQ ID NO 331]

2.87
2.79
2.84
2.98
